Kindly supply the reported MIC values for the records listed here.
- Tested on: Staphylococcus aureus
- measurement_protocol: In vitro antibacterial activity against gram-positive Staphylococcus aureus NCTC 10649M
- Format: functional
Answers are plain numbers, in µg/mL.

[[record]]
molecule = "Cc1c(N2C[C@@H](N)[C@H](C3CC3)C2)c(F)cn2c(=O)c(C(=O)O)cc(C3CC3)c12 (stereo in doubt; 3t)"
tested_target = "Staphylococcus aureus"
measurement_kind = "MIC"
numeric_readout = 0.01

[[record]]
molecule = "Cc1c(N2CC[C@H](N)C2)c(F)cn2c(=O)c(C(=O)O)cc(C3CC3)c12 (stereo in doubt; -(S)-3i)"
tested_target = "Staphylococcus aureus"
measurement_kind = "MIC"
numeric_readout = 0.01

[[record]]
molecule = "Cc1c(N2C[C@@H](N)[C@@H](C3CC3)C2)c(F)cn2c(=O)c(C(=O)O)cc(C3CC3)c12 (stereo in doubt; 3s)"
tested_target = "Staphylococcus aureus"
measurement_kind = "MIC"
numeric_readout = 0.02

[[record]]
molecule = "Cc1c(N2CC[C@H](C)[C@H](N)C2)c(F)cn2c(=O)c(C(=O)O)cc(C3CC3)c12 (stereo in doubt)"
tested_target = "Staphylococcus aureus"
measurement_kind = "MIC"
numeric_readout = 0.05

[[record]]
molecule = "CN[C@@H]1CN(c2c(F)cn3c(=O)c(C(=O)O)cc(C4CC4)c3c2C)C[C@H]1C (stereo in doubt; 3v)"
tested_target = "Staphylococcus aureus"
measurement_kind = "MIC"
numeric_readout = 0.02

[[record]]
molecule = "Cc1c(N2C[C@@H](N)[C@H](C3CC3)C2)c(F)cn2c(=O)c(C(=O)O)cc(C3CC3)c12 (stereo in doubt)"
tested_target = "Staphylococcus aureus"
measurement_kind = "MIC"
numeric_readout = 0.05


Let us move to another entry and its MIC.
For Cc1c(N2C[C@@H](N)[C@@H](C3CC3)C2)c(F)cn2c(=O)c(C(=O)O)cc(C3CC3)c12 (stereo in doubt) the molecule record lists MIC as 0.005

The measured values listed here are drawn from ChEMBL document CHEMBL1132437.
